# experiment.notes: growth inhibition of DIPG glioma cells, dose response, cell-based, SU-DIPG-IV, MIPE4.0, CellTiter-Glo, qHTS (AID 1347063);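 further: compound exposure lasted 48 hours before the viability readout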
# condition.parameters: SU-DIPG-IV viability, CellTiter-Glo ATP luminescence
Inconclusive results are not listed. Activity calls are given as the source filed them. Cut-off not given; nearly all actives show AC50 up to about 30 µM.
Outcomes you can answer with include only these: True (active), False (inactive)

molecule: Fc1ccc(C(OCCN2CCN(CCCc3ccccc3)CC2)c2ccc(F)cc2)cc1
cat: True
//
molecule: CCN1C[C@]2(OC(=O)c3ccccc3NC(C)=O)CC[C@H](OC)[C@@]34[C@@H]2C[C@@H]([C@@H]13)[C@@]1(O)C[C@H](OC)[C@H]2C[C@@H]4[C@]1(O)[C@H]2OC
cat: False
//
molecule: CCNC(=O)CC1N=C(c2ccc(Cl)cc2)c2cc(OC)ccc2-n2c(C)nnc21 (stereo not given)
cat: True
//
molecule: CCN(CC)C(=O)c1ccc(C2=CC3(CCNCC3)Oc3cccc(O)c32)cc1
cat: False
//
molecule: C#CCN(C)[C@H](C)Cc1ccccc1
cat: False

Prompt: Test call for this molecule, please: "CC[C@@H](C(N)=O)N1CCCC1=O"
Completion: False

Prompt: Test call, this molecule: "CC1=NN=C(c2ccc(N)cc2)c2cc3c(cc2C1)OCO3"
Completion: False

Prompt: Check the results log: what was the call for "CC(C)[C@]12O[C@H]1[C@@H]1O[C@]13[C@]1(O[C@H]1C[C@H]1C4=C(CC[C@@]13C)C(=O)OC4)[C@@H]2O" ?
Completion: False

Prompt: Entry O=S(=O)(CC1CS1)c1ccc(Oc2ccccc2)cc1 (stereo not given) : call = ?
Completion: True

Prompt: // return assay outcome for "C[C@]12CC[C@H]3[C@@H](CCC4=CC(=O)CC[C@@H]43)[C@@H]1CC[C@@H]2OC(=O)CCc1ccccc1"
Completion: False
